test: probe aShh binding to arrayed compounds – biochemical, biotinylated probe, 635/667 nm fluorescence, primary screen (AID 1114); details: small-molecule microarray, higher = more signal;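 also: probe is biotin-labelled aShh protein from a stem cell growth factor screen; measures binding of labelled protein to compounds printed on the slide; score merges feature fluorescence at 667 nm with signal-to-noise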
property.name: composite z-score
Give bare numbers.

Some solved entries appear below for comparison.
CCC[C@@H]1C[C@@]1(CCC)[C@@H](NC(=O)c1ccco1)c1ccc(Cl)cc1 :: 0.254
C=CCC(OC(C)=O)[C@@H]1[C@@H](N(Cc2cccc3ccccc23)C(=O)Cc2ccc(F)cc2)c2cc(OCCCO)ccc2N1C(=O)Cc1ccc(OC)cc1 (some centres undefined) :: -0.0557
O=C1O[C@H](c2ccccc2)[C@H](c2ccccc2)N2[C@H]1[C@@H](C(=O)NC[C@H](O)c1ccccc1)[C@]1(C(=O)Nc3ccccc31)[C@H]2c1ccccc1OCCO :: 1.47

Now turn to the next compound.
Per the records, this compound ( "COC(=O)[C@]1(Cc2ccccc2CN=[N+]=[N-])N=C(c2ccc(OCCCO)cc2)O[C@@H]1c1ccccc1CN=[N+]=[N-]" ) has composite z-score equal to 0.246

====

assay: hepatitis C replication reporter changes, two-sided – Huh7 cells, luciferase reporter, HCV replication inhibitor project, primary screen (AID 1109); conditions: Huh7 HCV replicon luciferase reporter, 48 h; higher = more signal;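 also: huh7 hepatoma cells harbouring a luciferase neomycin HCV replicon reporter; luciferase luminescence as measure of HCV replicon replication; test concentration not given here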
What z-score was measured for each of the following?
Give bare numbers.

Some solved entries appear below for comparison.
CN1C(=O)C2C=CC(C(O)C3CCCCC3)N(N(c3ccccc3)c3ccccc3)C2C1=O (stereo not drawn) :: -0.15
COCC1=C([C@H](O)CCc2ccccc2)[C@H](CO)[C@@H]2C(=O)N(C)C(=O)[C@@H]2C1 :: 0.216
C#CCOC(=O)N[C@H](C=CCCCC)c1ccccc1 :: -0.498

// batch mode: one z-score value per listed entry
1. CC(C)CN1C(=O)[C@@]2(Cc3ccccc31)c1ccccc1C(=O)N(Cc1ccccc1)[C@H]2c1ccc(CO)cc1
2. CCC[C@@H]1C[C@@]1(CCC)[C@@H](NC(=O)c1cccs1)c1ccc(Cl)cc1
3. COc1cc(NN2C(C(O)c3ccc(I)cc3)C=CC3C(=O)N(C)C(=O)C32)cc(OC)c1OC (stereo not drawn)
4. Cc1ccc(N2C(=O)c3ccccc3[C@](C)(C(=O)NC(C)C)[C@@H]2c2ccc(CO)cc2)nc1
5. [N-]=[N+]=NCc1ccccc1[C@H]1OC(c2ccc(OCCCO)cc2)=N[C@@]1(Cc1ccccc1N=[N+]=[N-])C(=O)NCCN1CCOCC1

Result:
1: 0.15; 2: -2.05; 3: -1.32; 4: -0.406; 5: -2.34

====

molecular target: Follistatin-related protein 3 (Homo sapiens) (UniProt O95633); experiment: compounds binding follistatin-related protein 3 – biochemical, small-molecule microarray, 635 nm fluorescence, primary screen (AID 1105); conditions: FSTL3 binding, higher = more signal;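 also: score merges emission near 667 nm and signal to noise per printed spot across three slides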
Sequence (O95633 whole entry, looked up): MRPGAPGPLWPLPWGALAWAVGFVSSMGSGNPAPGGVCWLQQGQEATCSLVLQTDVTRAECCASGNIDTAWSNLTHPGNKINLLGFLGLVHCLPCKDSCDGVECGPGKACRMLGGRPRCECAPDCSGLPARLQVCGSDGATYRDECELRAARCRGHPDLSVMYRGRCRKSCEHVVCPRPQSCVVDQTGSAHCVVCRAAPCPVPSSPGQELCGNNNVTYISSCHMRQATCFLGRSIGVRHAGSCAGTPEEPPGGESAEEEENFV
property.name: composite z-score

COc1ccc([Si](C)(C)[C@@H]2[C@@H](CC(=O)N(CCO)Cc3ccccc3)O[C@]3(C(=O)N(C)c4c(Br)cc(C)cc43)[C@H]2C)cc1 :: 1.09
COC(=O)[C@@]1(Cc2ccccc2)[C@H]2c3cc(C(=O)N4CCCC4)n(CCO)c3C[C@H]2CN1C(=O)c1ccccc1 :: 1.14
C[C@]12C(=O)N(CCCO)[C@@H]3C(=O)N(c4ccc(Cl)cc4)CC=CC31O[C@@H]1/C=C\CCCOC(=O)C12 (some centres not stated) :: -0.538

// batch mode: one composite z-score value per listed entry
1. CCCCC(O)C1C=CC2C(=O)N(Cc3ccccc3)C(=O)C2N1n1cnnc1 (configuration not stated)
2. COCCOC(=O)N1C(=O)[C@@]2(c3cc(C#CC4(O)CCCCCC4)ccc31)[C@H](C(=O)NC[C@H](O)c1ccccc1)[C@H]1C(=O)O[C@H](c3ccccc3)[C@H](c3ccccc3)N1[C@@H]2c1ccc(OCCO)cc1
3. CC(C)(C)OC(=O)CC[C@]1(C(=O)O)COC(c2ccc(OCCCO)cc2)=N1
4. Cc1ccc(F)cc1S(=O)(=O)N[C@@H]1CCN(C(=O)c2ccc(OC(C)C)cc2)C1

Result:
1: 0.412; 2: 0.834; 3: -1.2; 4: 1.34

====

molecular target: Pro-neuregulin-1, membrane-bound isoform (Homo sapiens) (UniProt Q02297); assay: small molecules binding neuregulin-1 protein – biochemical, small-molecule microarray, fluorescence 635/667, psychiatric disease protein project, primary screen (AID 1075); conditions: NRG1 binding, 635 nm fluorescence, higher = more signal;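 also: score combines 667 nm spot fluorescence with signal to noise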
Sequence (Q02297 whole entry, looked up, canonical isoform): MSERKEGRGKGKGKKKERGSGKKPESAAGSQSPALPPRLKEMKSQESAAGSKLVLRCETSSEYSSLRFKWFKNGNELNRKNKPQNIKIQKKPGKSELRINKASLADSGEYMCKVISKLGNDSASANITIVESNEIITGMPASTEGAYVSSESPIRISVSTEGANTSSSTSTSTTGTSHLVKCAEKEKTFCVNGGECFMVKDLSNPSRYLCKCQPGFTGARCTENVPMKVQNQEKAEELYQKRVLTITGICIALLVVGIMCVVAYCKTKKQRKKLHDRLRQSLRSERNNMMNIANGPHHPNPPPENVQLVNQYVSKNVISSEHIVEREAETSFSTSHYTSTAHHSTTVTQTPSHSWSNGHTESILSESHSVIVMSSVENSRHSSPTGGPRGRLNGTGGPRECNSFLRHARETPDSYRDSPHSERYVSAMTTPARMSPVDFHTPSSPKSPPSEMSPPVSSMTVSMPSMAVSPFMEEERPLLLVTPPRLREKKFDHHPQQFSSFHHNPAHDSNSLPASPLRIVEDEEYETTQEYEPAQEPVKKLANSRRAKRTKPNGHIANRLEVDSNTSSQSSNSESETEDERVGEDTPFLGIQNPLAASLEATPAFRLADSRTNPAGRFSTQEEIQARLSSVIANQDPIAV
What composite z-score was measured for each of the following?
Answers are plain numbers.

Some solved entries appear below for comparison.
Cc1ccc(S[C@]2(C(=O)NCCN3CCOCC3)CC(=O)N(C3Cc4ccccc4C3)[C@@H]2c2ccc(CO)cc2)cc1 :: 1.72
O=C1CSC(c2cccc([N+](=O)[O-])c2)N1c1ccccc1 (stereo not drawn) :: 0.146
C=C(COC)/C(=C/C[C@@H](OC(=O)c1ccncc1)c1cccc(OCCO)c1)c1cc(C(=O)OC)ccc1OC :: -0.142

// batch mode: one composite z-score value per listed entry
1. CN1C(=O)C2C=CC(C(O)c3cccc4ccccc34)N(NC(=O)OC(C)(C)C)C2C1=O (stereo not drawn)
2. COc1cc(C(O)C2C=CC3C(=O)NC(=O)C3N2Nc2ccc(Cl)cc2Cl)cc(OC)c1OC (stereo not drawn)
3. CC(C)[Si](C#C[Si](C(C)C)(C(C)C)C(C)C)(O[C@H](C)c1cn(Cc2cccc(Cl)c2)nn1)C(C)C
4. C=CCC(OC(C)=O)[C@@H]1[C@@H](N(Cc2cc3ccccc3o2)C(=O)Cc2ccc(OC)cc2)c2cc(OCCCO)ccc2N1C(=O)c1ccc(-c2ccccc2)cc1 (stereo partly drawn)
5. N#Cc1ccc(NN2C(C(O)c3ccccc3)C=CC3C(=O)N(c4ccccc4)C(=O)C32)cc1 (stereo not drawn)

Result:
[2.11, 1.72, 0.528, -0.294, 1.15]

====

assay: change in splice reporter luminescence, either direction, cell-based, HEK293, spliceosome inhibition project, primary screen (AID 1101); conditions: HEK293 splicing luciferase reporter, 24 h, higher = more signal, called active from +8 up or from −8 down;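 also: HEK293 cells carrying a splicing-competent luciferase reporter gene; test concentration not given here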
Criterion: z-score meeting or surpassing 0.01. Met: 1. Not met: 0.

COCC1=C([C@H](O)CCc2ccccc2)[C@H](CO)[C@@H]2C(=O)N(C)C(=O)[C@@H]2C1 :: 1
CC(C)(C)OC(=O)CC[C@]1(C(=O)N2CCCCC2)N=C(c2ccc(OCCCO)cc2)O[C@H]1c1ccccc1CN=[N+]=[N-] :: 0
CO[C@H]1O[C@H](CO)[C@@H](OC(=O)c2ccc(Br)cc2)[C@@H]2OC(=O)[C@H](Cc3cccc(Br)c3)C/C=C/C[C@@H](Cc3cccc(Br)c3)C(=O)O[C@@H]12 :: 1
COCC(=C=CC[C@@H](O)c1ccccc1OCCO)C[C@@H](O)COCc1ccccc1 :: 0
C=CCN1C(=O)[C@@]2(O[C@@H](CCO)[C@H]([Si](C)(C)c3ccc(OC)cc3)[C@H]2C)c2cc(NC(=O)[C@H](C)O)ccc21 :: 0

Ask: Determine whether this compound has z-score no lower than 0.01: CN1C(=O)C2C=CC(C(O)C3CCCCC3)N(N(c3ccccc3)c3ccccc3)C2C1=O (centres undefined)
Result: 1

Ask: Determine whether this compound has z-score no lower than 0.01: "[N-]=[N+]=NCc1ccccc1[C@H]1OC(c2ccc(OCCCO)cc2)=N[C@@]1(Cc1ccccc1N=[N+]=[N-])C(=O)NCCN1CCOCC1"
Result: 0

Ask: Determine whether this compound has z-score no lower than 0.01: "COc1ccc([Si](C)(C)[C@H]2[C@H](CCO)O[C@@]3(C(=O)N(Cc4cccc(N5CCOC5=O)c4)c4ccccc43)[C@@H]2C)cc1"
Result: 0

Ask: Determine whether this compound has z-score no lower than 0.01: "CCCC=C(CCC)[C@@H](NS(=O)(=O)c1ccccc1)c1ccc(C(F)(F)F)cc1"
Result: 0

Ask: Determine whether this compound has z-score no lower than 0.01: "COC(=O)[C@]1(Cc2ccccc2N=[N+]=[N-])N=C(c2ccc(OCCCO)cc2)O[C@@H]1c1ccccc1"
Result: 1

Ask: Determine whether this compound has z-score no lower than 0.01: CN1C(=O)C2C=CC(C(O)c3ccc(F)cc3)N(N3CCCCC3)C2C1=O (centres undefined)
Result: 1

====

tested on: Neuregulin-1 EGF-like domain; assay: small molecules binding NRG1 EGF domain – biochemical, small-molecule microarray, 635 nm fluorescence, primary screen (AID 1081); conditions: higher = more signal;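 also: binding of the protein to compounds printed on small-molecule microarray slides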
Criterion: composite z-score meeting or surpassing 1. Met: 1. Not met: -1.

COCCOC(=O)N1C(=O)[C@@]2(c3cc(C#CC4(O)CCCCCC4)ccc31)[C@H](C(=O)NC[C@H](O)c1ccccc1)[C@H]1C(=O)O[C@H](c3ccccc3)[C@H](c3ccccc3)N1[C@@H]2c1ccc(OCCO)cc1 :: 1
COCCOC(=O)N1C(=O)[C@@]2(c3cc(C#CCNC(N)=O)ccc31)[C@H](C(N)=O)[C@H]1C(=O)O[C@H](c3ccccc3)[C@H](c3ccccc3)N1[C@@H]2c1ccc(OCCO)cc1 :: -1
C=C(/C(=C/C[C@@H](OC(C)=O)c1ccccc1OCCO)c1cnc2ccccc2c1)C(C)C :: -1

Ask: Determine whether this molecule has composite z-score no lower than 1: "CC(=O)NCCCC[C@@H]1NC(=O)[C@@H]2C[C@H](C(=O)NCCCC[N+](C)(C)C)[C@H](c3cccc(OCCO)c3)N2C1=O"
Result: 1

Ask: Determine whether this molecule has composite z-score no lower than 1: "COCCCNC(=O)[C@]1(Cc2ccccc2CN=[N+]=[N-])N=C(c2ccc(OCCCO)cc2)O[C@@H]1c1ccccc1CN=[N+]=[N-]"
Result: 1

Ask: Determine whether this molecule has composite z-score no lower than 1: "COC(=O)[C@@]1(Cc2ccc(F)cc2)[C@@H]2[C@@H](CC(=O)[C@H]2CC(=O)C(=O)N2CCCC2)CN1C(=O)c1ccccc1"
Result: 1
